Test: Quantitative High-Throughput drug screen in 47 multiple myeloma cell lines against the NCATS MIPE library collection: FR4_PLB cell viability assay (AID 1918924; further: nearly all actives have a fitted effect of over 35% in size)
Settings: FR4_PLB myeloma cells viability, CellTiter-Glo ATP, 48 h; series mostly up to 45.8 µM
Inconclusive results are not listed. The source made the active and inactive calls. The call rests on the fitted dose curve; in most records, active means well fitted cell-killing curve with a large enough effect; inconclusive means small, poorly fitted or top-dose-only effect, or effect the other way; inactive means no such curve, though single readings can be large or run the other way. Starred links: 1 amine or outer side, 2 acyl side, 3 side chain; linkers in the order of their positions; H or OH if unused. Positions of bridges follow the written chain, without caps; N, C: chain ends. Non-standard residues stand in square brackets, D forms with d. Residues, ends and D or L forms follow the SMILES beside them. Chains are numbered I, II in the order given. Actinocin(9to1) = Cc1c2oc3c(C)ccc(C(=O)[*:1])c3nc-2c(C(=O)[*:2])c(N)c1=O; NMeV = CN[CH](C(=O)O)C(C)C; Sar = CNCC(=O)O
Possible outcomes: active, inactive

compound=O=C(CCCCCCC(=O)Nc1cccnc1)NO cat=active
compound=N#CNC(=NCCCCCCOc1ccc(Cl)cc1)Nc1ccncc1 cat=active
compound=CC(C)OC(=O)[C@H](C)N[P@](=O)(OC[C@H]1O[C@@H](n2ccc(=O)[nH]c2=O)[C@](C)(F)[C@H]1O)Oc1ccccc1 cat=inactive
compound=Nc1nc(N)c2nc(-c3cccc(O)c3)c(-c3cccc(O)c3)nc2n1 cat=active
compound=COc1cc([C@@H]2c3cc4c(cc3[C@H](O)[C@H]3COC(=O)[C@@H]23)OCO4)cc(OC)c1OC cat=active
compound=Cc1ncc(-c2ccnc(Nc3ccc(S(C)(=O)=O)cc3)n2)n1C(C)C cat=active
compound="Nc1ccn(C2CO[C@H](CO)O2)c(=O)n1 (some centres not stated)" cat=inactive
compound=CN1CCc2c(c3ccccc3n2Cc2ccc(C(=O)NO)cc2)C1 cat=active
compound="Cc1c2oc3c(C)ccc(C(=O)NC4C(=O)NC(C(C)C)C(=O)N5CCCC5C(=O)N(C)CC(=O)N(C)C(C(C)C)C(=O)OC4C)c3nc-2c(C(=O)NC2C(=O)NC(C(C)C)C(=O)N3CCCC3C(=O)N(C)CC(=O)N(C)C(C(C)C)C(=O)OC2C)c(N)c1=O (configuration not stated) (I: TVP[Sar][NMeV] / II: TVP[Sar][NMeV]; ester I:1-I:C, II:1-II:C; linker I:N-II:N via Actinocin(9to1); configuration not given here)" cat=inactive
compound=COC1=C2C[C@@H](C)C[C@H](OC)[C@@H](O)[C@@H](C)C=C(C)[C@H](OC(N)=O)[C@@H](OC)C=CC=C(C)C(=O)NC(=CC1=O)C2=O cat=active
compound=O=C(O)C[C@H](O)C[C@H](O)C=Cc1c(C2CC2)nc2ccccc2c1-c1ccc(F)cc1 cat=active
compound="Nc1nc(=O)n([C@H]2CSC(CO)O2)cc1F (some centres not stated)" cat=inactive
compound="COC(=O)C1C2CC3c4[nH]c5cc(OC)ccc5c4CCN3CC2CC(OC(=O)c2cc(OC)c(OC)c(OC)c2)C1OC (configuration not stated)" cat=active
compound=C=C(C)[C@@H]1CC[C@]2(C(=O)O)CC[C@]3(C)[C@H](CC[C@@H]4[C@@]5(C)CC[C@H](O)C(C)(C)[C@@H]5CC[C@]43C)[C@@H]12 cat=inactive
compound=CN(C)CCN1C(=O)c2cccc3cc(N)cc(c23)C1=O cat=active
compound=COc1cc2ncnc(Nc3cccc(Br)c3)c2cc1OC cat=active
compound=OC[C@@H](O)[C@@H](O)[C@H](O)[C@@H](O)CO cat=inactive
compound=COC1=C(OC)C(=O)C(CC=C(C)CCC=C(C)CCC=C(C)CCC=C(C)CCC=C(C)CCC=C(C)CCC=C(C)CCC=C(C)CCC=C(C)CCC=C(C)C)=C(C)C1=O cat=inactive
compound=Cc1ccc([N+](=O)[O-])cc1S(=O)(=O)N(C)N=Cc1cnc2ccc(Br)cn12 cat=active
compound="OC[C@H]1OC(O)C[C@@H](O)[C@H]1O (some centres not stated)" cat=inactive
compound=COc1cccc2c1C(=O)c1c(O)c3c(c(O)c1C2=O)C[C@@](O)(C(=O)CO)C[C@@H]3O[C@H]1C[C@H](N)[C@@H](O)[C@H](C)O1 cat=active
compound=CC[C@H]1OC(=O)[C@H](C)[C@@H](O[C@H]2C[C@@](C)(OC)[C@@H](O)[C@H](C)O2)[C@H](C)[C@@H](O[C@@H]2O[C@@H](C)C[C@H](N(C)C)[C@@H]2O)[C@](C)(O)C[C@@H](C)C(=O)[C@H](C)[C@@H](O)[C@]1(C)O cat=inactive
compound=CCc1c(O)cc(O)c(C(=O)c2ccc(OCCN3CCOCC3)c(OC)c2)c1CC(=O)N(CCOC)CCOC cat=active
compound="CC(=O)C1=C(O)C=C2Oc3c(C(C)=O)c(O)c(C)c(O)c3C2(C)C1=O (configuration not stated)" cat=inactive
compound=CC(=O)[C@]1(O)Cc2c(O)c3c(c(O)c2[C@@H](O[C@H]2C[C@H](N)[C@@H](O)[C@H](C)O2)C1)C(=O)c1ccccc1C3=O cat=active
compound=NS(=O)(=O)OC[C@@H]1C[C@@H](n2ccc3c(N[C@H]4CCc5ccccc54)ncnc32)C[C@H]1O cat=active
compound=N#CC(=C(N)Sc1ccc(N)cc1)c1ccccc1C(F)(F)F cat=inactive
compound=Cn1cc(C[C@@H](N)C(=O)O)c2ccccc21 cat=inactive
compound=Cn1cnc(=N)c2[nH]cnc21 cat=active
compound=COC[C@H](NC(=O)c1cnc(C)s1)C(=O)N[C@@H](COC)C(=O)N[C@@H](Cc1ccccc1)C(=O)[C@@]1(C)CO1 cat=active
compound="C[C@H](CCC(=O)O)[C@H]1CCC2C3C[C@H](O)[C@@H]4C[C@H](O)CC[C@]4(C)C3CC[C@@]21C (some centres not stated)" cat=inactive
compound=O=C(Nc1cc2cc[nH]c2cn1)c1ccccc1 cat=active

* * *

Experiment: qHTS of pediatric cancer cell lines to identify multiple opportunities for drug repurposing: Confirmatory screen for LAN-5 cells (AID 1347113); further: nearly all actives have a fitted effect of over 65% in size
Details: LAN-5 neuroblastoma cell viability; series mostly up to 45.9 µM
Experimental: Drug repurposing or repositioning has been offered as a strategy for drug development in oncology programs. […] [1] Shen, M et al. Quantitative high-throughput phenotypic screening of pediatric cancer cell lines identifies multiple opportunities for drug repurposing. […] Cells were assayed in growth media at a density of 500-1,000 cells/well. […] After a 15 min incubation at room temperature, samples were analyzed for luminescence intensity using a ViewLux High-throughput CCD imager equipped with clear filters.
Results filed as inconclusive are left out. Calls of active or inactive are those of the source. Calls come from the whole dose curve; as a rule, active = well fitted cell-killing curve with a large enough effect; inconclusive = small, poorly fitted or top-dose-only effect, or effect the other way; inactive = no such curve, though single readings can be large or run the other way. Non-standard residues stand in square brackets, D forms with d. Residues, ends and D or L forms follow the SMILES beside them. *: point of attachment. Nva = CCC[C@H](N)C(=O)O; Cbz = O=C(OCc1ccccc1)*
Possible outcomes: 1.0 = active, 0.0 = inactive

molecule=CNC(=O)Nc1ccc(-c2nc(N3CC4CCC(C3)O4)c3cnn(C4CCC5(CC4)OCCO5)c3n2)cc1 cat=1.0
molecule=Nc1nc2c(c(=O)[nH]1)N(C=O)[C@H](CNc1ccc(C(=O)N[C@@H](CCC(=O)O)C(=O)O)cc1)CN2 cat=0.0
molecule=Cc1cnc(Nc2ccc(N3CCN(C)CC3)cc2)nc1Nc1cccc(S(=O)(=O)NC(C)(C)C)c1 cat=1.0
molecule=CCN(CC)CCNC(=O)c1c(C)[nH]c(C=C2C(=O)Nc3ccc(F)cc32)c1C cat=1.0
molecule=CO[C@@H]1[C@@H](O)[C@H](O)[C@@H](n2c3c(Cl)cccc3c3c4c(c5c6cccc(Cl)c6[nH]c5c32)C(=O)NC4=O)O[C@@H]1CO cat=1.0
molecule=CS(=O)(=O)N1CCc2c(-c3cnc(N)nc3)nc(N3CCOCC3)nc21 cat=1.0
molecule=N#CNC(=NCCCCCCOc1ccc(Cl)cc1)Nc1ccncc1 cat=1.0
molecule=Nc1ncn([C@@H]2O[C@H](CO)[C@@H](O)[C@@H]2O)c(=O)n1 cat=1.0
molecule="CCC[C@@H](C=O)NC(=O)[C@H](CC(C)C)NC(=O)[C@H](CC(C)C)NC(=O)OCc1ccccc1 (Cbz-Leu-Leu-[Nva]-aldehyde)" cat=1.0
molecule=COc1cc2ncnc(Nc3cccc(Br)c3)c2cc1OC cat=1.0
molecule=CCCCC(=O)O[C@]1(C(=O)CO)[C@@H](C)C[C@H]2[C@@H]3CCC4=CC(=O)C=C[C@]4(C)[C@@]3(F)[C@@H](O)C[C@@]21C cat=0.0
molecule=CC(C=CC1=C(C)CCCC1(C)C)=CC=CC(C)=CC(=O)Nc1ccc(O)cc1 cat=1.0
molecule=Cc1nc(NC(=O)N2CCC[C@@H]2C(N)=O)sc1-c1ccnc(C(C)(C)C(F)(F)F)c1 cat=1.0
molecule=C=CCNC1=C2C[C@@H](C)C[C@H](OC)[C@@H](O)[C@@H](C)C=C(C)[C@H](OC(N)=O)[C@@H](OC)C=CC=C(C)C(=O)NC(=CC1=O)C2=O cat=1.0
molecule=O=C(NC1CC1)c1cccc(-c2ccc3c(NC(=O)C4CC4)n[nH]c3c2)c1 cat=0.0
molecule=COc1cccc2c1C(=O)c1c(O)c3c(c(O)c1C2=O)C[C@@](O)(C(=O)CO)C[C@H]3O[C@H]1C[C@H](N)[C@H](O)[C@H](C)O1 cat=1.0
molecule=COc1cc(OC)c(C=CS(=O)(=O)Cc2ccc(OC)c(NCC(=O)O)c2)c(OC)c1 cat=1.0
